# System: human 5-HT2A receptor (Homo sapiens)
# Construct: expressed in transfected cells
# Assay Notes: Test A: binding to human recombinant 5-HT2A serotonin receptor, [3H]-ketanserin displacement
# Setup Conditions: membranes from CHO-K1 cells expressing human 5-HT2A; 0.5 nM [3H]-ketanserin; 1 hour at 25° C.; read-out: 5-HT2A (pKi) (converted)
Counter-ions that a name gives are not always drawn.
Class boundaries, taken from values of Ki, are as follows: A = under 20 nM, B = from 20 nM up to 300 nM, C = 300 nM and over

[[record]]
compound = "O=C1c2c3ccccc3nn2CCN1CC1CCN(CCc2ccccc2)CC1 [Compound 20, hydrochloride]"
assigned_label = "A"

[[record]]
compound = "O=C1c2c3ccccc3nn2CCCN1CCCN1CCC(c2ccccc2)CC1 [Compound 31, hydrochloride]"
assigned_label = "B"

[[record]]
compound = "O=C1c2c3ccccc3nn2CCCN1CC1CCCN(CCc2ccc(F)cc2)C1 (stereo not drawn) [Compound 10, dihydrochloride]"
assigned_label = "B"

[[record]]
compound = "Cl.O=C1c2c3ccccc3nn2CCCN1CC1CCN(CCc2ccc(F)cc2)CC1 [Compound 16, hydrochloride]"
assigned_label = "A"


Bin? O=C1c2c3ccccc3nn2CCN1CC1CCCN(CCc2ccc(F)cc2)C1 (stereo not drawn)
C

Bin? O=C1c2c3c(nn2CCN1CC1CCN(CCc2ccc(F)cc2)CC1)CCCC3 [Compound 17, hydrochloride]
B

Bin? `O=C1c2c3ccccc3nn2CCCN1CC1CCN(CCc2ccccc2)CC1`
B

Bin? O=C1c2c3ccccc3nn2CCN1CC1CCCN(CCc2ccccc2F)C1 (stereo not drawn) [Compound 5, hydrochloride]
C

====

# System: human 5-HT2C receptor (Homo sapiens, UniProt P28335)
# Construct: expressed in transfected cells
# Sequence (P28335 33-458): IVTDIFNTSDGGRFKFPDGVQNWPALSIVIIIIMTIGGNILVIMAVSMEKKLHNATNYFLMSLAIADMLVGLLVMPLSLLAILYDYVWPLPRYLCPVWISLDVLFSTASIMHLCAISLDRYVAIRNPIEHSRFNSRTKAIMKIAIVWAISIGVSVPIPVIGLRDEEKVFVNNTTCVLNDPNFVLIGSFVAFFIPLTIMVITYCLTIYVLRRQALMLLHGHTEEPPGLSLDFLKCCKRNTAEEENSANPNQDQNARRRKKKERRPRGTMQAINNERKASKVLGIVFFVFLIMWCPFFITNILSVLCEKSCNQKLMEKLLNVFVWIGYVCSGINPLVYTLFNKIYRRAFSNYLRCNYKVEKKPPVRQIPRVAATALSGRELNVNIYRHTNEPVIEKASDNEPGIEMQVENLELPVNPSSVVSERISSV
# Assay Notes: Test B: binding to human 5-HT2C serotonin receptor, [3H]-mesulergine displacement
# Setup Conditions: membranes from CHO-K1 cells expressing human 5-HT2C; 1 nM [3H]-mesulergine; 1 hour at 25° C.; read-out: (h)5-HT2c (pKi) (converted)
Structures can show the parent of a compound that is named as a salt.
// values below are reported Ki

[[record]]
compound = "Cl.O=C1c2c3ccccc3nn2CCCN1CC1CCN(CCc2ccc(F)cc2)CC1 [Compound 16, hydrochloride]"
property_measured = "Ki"
measured_value = "> 10 µM"


Fill in Ki for record O=C1c2c3ccccc3nn2CCCN1CCCN1CCC(c2ccccc2)CC1 [Compound 31, hydrochloride]
> 10 µM

Fill in Ki for record O=C1c2c3ccccc3nn2CCN1CCCN1CCC(c2ccccc2)CC1 [Compound 28, hydrochloride]
> 10 µM

====

// values below are reported Ki
# System: human 5-HT2A receptor (Homo sapiens, UniProt P28223)
# Construct: expressed in transfected cells
# Sequence (P28223 whole entry): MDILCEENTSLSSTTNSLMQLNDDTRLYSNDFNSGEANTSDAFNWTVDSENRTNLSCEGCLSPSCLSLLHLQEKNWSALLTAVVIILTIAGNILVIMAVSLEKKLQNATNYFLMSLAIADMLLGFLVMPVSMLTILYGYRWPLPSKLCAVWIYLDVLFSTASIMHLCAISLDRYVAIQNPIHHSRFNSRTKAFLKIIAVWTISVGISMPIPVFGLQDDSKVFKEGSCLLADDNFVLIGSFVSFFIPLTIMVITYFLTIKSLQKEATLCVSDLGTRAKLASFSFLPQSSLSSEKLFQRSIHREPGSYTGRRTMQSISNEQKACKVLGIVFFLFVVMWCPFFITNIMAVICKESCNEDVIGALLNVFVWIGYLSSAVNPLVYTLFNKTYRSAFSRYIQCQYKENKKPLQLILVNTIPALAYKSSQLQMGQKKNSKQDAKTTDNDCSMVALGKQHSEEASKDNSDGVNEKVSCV
# Assay Notes: Test A: binding to human recombinant 5-HT2A serotonin receptor, [3H]-ketanserin displacement
# Setup Conditions: membranes from CHO-K1 cells expressing human 5-HT2A; 0.5 nM [3H]-ketanserin; 1 hour at 25° C.; read-out: 5-HT2A (pKi) (converted)
# Procedure: In particular, binding to the human 5-HT2A serotonin receptor was performed using, as starting material, a preparation of membranes from stable recombinant CHO-K1 cell line expressing the human 5-HT2A receptor. The non-specific binding was measured in the presence of 1 μM mianserin. The assay was conducted in Tris-HCl 50 mM buffer (pH 7.4 at 37° C.), with incubation for 1 hour at 25° C. […]
Where a name gives a salt, the structure may show the parent alone.
# number only, unit nM dropped from output

[[record]]
compound = "Cl.O=C1c2c3ccccc3nn2CCN1CC1CCN(CCc2ccc(F)cc2)CC1 [Compound 1, hydrochloride]"
measured_value = 19.5

[[record]]
compound = "O=C1c2c3ccccc3nn2CCCN1CC1CCCN(CCc2ccccc2F)C1 (stereo not shown) [Compound 13, dihydrochloride]"
measured_value = 257

[[record]]
compound = "O=C1c2c3ccccc3nn2CCN1CCCN1CCC(c2ccccc2)CC1 [Compound 28, hydrochloride]"
measured_value = 74.1


Fill in Ki for record O=C1c2c3ccccc3nn2CCN1CC1CCN(CCc2ccccc2F)CC1 [Compound 8]
1.82
